# Tested on: CCRIS mutagenicity, Ames/micronucleus/aberration tests
# procedure.text: CCRIS mutagenicity studies
# measurement.context: Test System: AMES SALMONELLA TYPHIMURIUM; Strain/Indicator: TA1535; Metabolic Activation: NONE; Method: STANDARD PLATE
The source made the active and inactive calls. No rule for the calls is given here.

# structure.as.smiles, assayed.system, mutagenic call
records = [
    ("c1ccc(-c2ccc(-c3ccccc3)cc2)cc1", "CCRIS mutagenicity, Ames/micronucleus/aberration tests", "inactive; negative"),
    ("CC1=C(C(=O)Nc2ccccc2)SCCO1", "CCRIS mutagenicity, Ames/micronucleus/aberration tests", "inactive; negative"),
]

====

# System: CCRIS mutagenicity, Ames/micronucleus/aberration tests
# procedure.text: CCRIS mutagenicity studies
# measurement.context: Test System: AMES SALMONELLA TYPHIMURIUM; Strain/Indicator: TA1535; Metabolic Activation: HAMSTER, LIVER, S-9, AROCLOR 1254 (30%); Method: PREINCUBATION
# Text: The CCRIS database contains chemical records with carcinogenicity, mutagenicity, tumor promotion, and tumor inhibition test results. It was developed by the National Cancer Institute (NCI). Data are derived from studies cited in primary journals, current awareness tools, NCI reports, and other sources. Test results have been reviewed by experts in carcinogenesis and mutagenesis. CCRIS provides historical information from the years 1985 - 2011. It is no longer updated. […]
Calls of active or inactive are those of the source. How the calls were made is not given here.
The reply should be one of these categories: y (active), n (inactive)

Illustrative cases are given below, each with its answer.
# compound, label.value
rows = [
    ("CCCCCCC(C)(C)C(=O)OCC1CO1 (centres undefined)", "y"),
    ("CCCCOP(=O)(OCCCC)Oc1ccccc1", "n"),
    ("CC(=O)CC(=O)Nc1ccccc1", "n"),
    ("c1ccc(CSCc2ccccc2)cc1", "n"),
    ("C=CCOC(=O)C=C", "n"),
]

Outcome? c1cc2c3c(cccc3c1)CC2 n

Outcome? CC(C)(C)OCC1CO1 (centres undefined) y

Outcome? Cc1cccc(Br)c1 n

====

# Tested on: CCRIS mutagenicity, Ames/micronucleus/aberration tests
# procedure.text: CCRIS mutagenicity studies
# measurement.context: Test System: MOUSE LYMPHOMA; Strain/Indicator: L5178Y (TK+/TK-); Metabolic Activation: RAT, LIVER, S-9, AROCLOR 1254; Method: SUSPENSION/PLATE
Activity calls are given as the source filed them. The rule behind the calls is not given here.
The reply should be one of these categories: label 1 (active), label 0 (inactive)

# molecule, assayed.system, label.value
data = [
    ("CCCC(O)C(CC)CO (stereo unspecified)", "CCRIS mutagenicity, Ames/micronucleus/aberration tests", "label 0"),
    ("Cc1ccc(N=C=O)cc1N=C=O", "CCRIS mutagenicity, Ames/micronucleus/aberration tests", "label 1"),
    ("COc1cc(-c2ccc(N)c(OC)c2)ccc1N", "CCRIS mutagenicity, Ames/micronucleus/aberration tests", "label 1"),
    ("C=CC(=O)O", "CCRIS mutagenicity, Ames/micronucleus/aberration tests", "label 1"),
    ("O=C1C=CC(=O)N1", "CCRIS mutagenicity, Ames/micronucleus/aberration tests", "label 1"),
]

With those in mind, consider the next molecule.
Outcome? COc1c(Cl)c(Cl)c(Cl)c(Cl)c1Cl label 1

====

# Test system: CCRIS mutagenicity, Ames/micronucleus/aberration tests
# procedure.text: CCRIS mutagenicity studies
# measurement.context: Test System: AMES SALMONELLA TYPHIMURIUM; Strain/Indicator: TA98; Metabolic Activation: NONE; Method: STANDARD PLATE
Active and inactive are the calls of the source. The rule behind the calls is not given here.
outcome.measure: mutagenic call

Please review the following examples before continuing.
# structure.as.smiles, mutagenic call
records = [
    ("O=[N+]([O-])c1c(O)cc2c3c(cccc13)-c1ccccc1-2", "active; positive"),
    ("CC(=O)c1cc(C(C)(C)C)cc2c1CCC2(C)C", "inactive; negative"),
    ("CC(C)(C)c1cc(-c2ccccc2)ccc1[N+](=O)[O-]", "inactive; negative"),
    ("Clc1cc2ccccc2c2ccccc12", "inactive; negative"),
    ("Cc1ccc2c(c1[N+](=O)[O-])C(=O)c1ccccc1C2=O", "active; positive"),
    ("Clc1ccc(Cl)nc1", "inactive; negative"),
    ("FC(F)(F)c1ccc(Cl)cc1", "inactive; negative"),
    ("c1ccc2sc(SNC3CCCCC3)nc2c1", "inactive; negative"),
]

Record summary for N#Cc1cc([N+](=O)[O-])ccc1N=Nc1ccc(N(CCO)CCO)cc1 : reported mutagenic call = active; positive

====

# System: CCRIS mutagenicity, Ames/micronucleus/aberration tests
# procedure.text: CCRIS mutagenicity studies
# measurement.context: Test System: AMES SALMONELLA TYPHIMURIUM; Strain/Indicator: TA98; Metabolic Activation: NONE; Method: STANDARD PLATE
The source made the active and inactive calls. The rule behind the calls is not given here.
The reply should be one of these categories: true (1) (active), false (0) (inactive)

# compound, label.value
records = [
    ("CN(C)c1ccc(C(=C2C=CC(=[N+](C)C)C=C2)c2c(O)c(S(=O)(=O)[O-])cc3cc(S(=O)(=O)O)ccc23)cc1", "false (0)"),
    ("CC1=CC(=O)c2ccccc2C1=O", "false (0)"),
    ("CCCC[C@@H](C)[C@@H](OC(=O)C[C@@H](CC(=O)O)C(=O)O)[C@H](C[C@@H](C)C[C@H](O)CCCC[C@@H](O)C[C@H](O)[C@H](C)N)OC(=O)C[C@@H](CC(=O)O)C(=O)O", "false (0)"),
    ("O=C(O)/C=C/c1ccccc1[N+](=O)[O-]", "false (0)"),
    ("Oc1ccc(ON2P(Oc3ccc(O)cc3)N=P(Oc3ccc(O)cc3)(Oc3ccc(O)cc3)N(Oc3ccc(O)cc3)P2Oc2ccc(O)cc2)cc1 (stereo not given)", "false (0)"),
]

With those in mind, consider the next compound.
Outcome? CC1(C)C(=O)[C@]2(C)CC[C@H]1C2 false (0)

====

# System: CCRIS mutagenicity, Ames/micronucleus/aberration tests
# procedure.text: CCRIS mutagenicity studies
# measurement.context: Test System: AMES SALMONELLA TYPHIMURIUM; Strain/Indicator: TA100; Metabolic Activation: NONE; Method: STANDARD PLATE
The source made the active and inactive calls. The rule behind the calls is not given here.
The reply should be one of these categories: active, inactive

# structure.as.smiles, label.value
measured = [
    ("Clc1cc2ccccc2c2ccccc12", "inactive"),
    ("O=C/C(Br)=C(/Br)C(=O)O", "active"),
    ("CN(C(=O)CCCCl)c1snc2ccccc12", "inactive"),
    ("C[n+]1ccn(CCC[n+]2ccc(C(N)=O)cc2)c1/C=N/O", "inactive"),
]

With those in mind, consider the next compound.
Outcome? CCOP(=O)(OCC)O/C(=C/Br)c1ccc(Cl)cc1Cl inactive

====

# System: CCRIS mutagenicity, Ames/micronucleus/aberration tests
# procedure.text: CCRIS mutagenicity studies
# measurement.context: Test System: AMES SALMONELLA TYPHIMURIUM; Strain/Indicator: TA100; Metabolic Activation: RAT, LIVER, S-9, AROCLOR 1254
# From the text: The CCRIS database contains chemical records with carcinogenicity, mutagenicity, tumor promotion, and tumor inhibition test results. It was developed by the National Cancer Institute (NCI). Data are derived from studies cited in primary journals, current awareness tools, NCI reports, and other sources. Test results have been reviewed by experts in carcinogenesis and mutagenesis. CCRIS provides historical information from the years 1985 - 2011. It is no longer updated. […]
The source made the active and inactive calls. No rule for the calls is given here.
The reply should be one of these categories: 1 (yes) = active, 0 (no) = inactive

Illustrative cases are given below, each with its answer.
# molecule, label.value
records = [
    ("Cc1cc2c3c(cccc3c1)-c1cc3ccccc3cc1-2", "1 (yes)"),
    ("CNC(=O)CN(CCN(CCN(CC(=O)O)CC(=O)NC)CC(=O)O)CC(=O)O", "0 (no)"),
]

Outcome? NC(=O)CN1CC(O)CC1=O (stereo not drawn) 0 (no)

====

# Test system: CCRIS mutagenicity, Ames/micronucleus/aberration tests
# procedure.text: CCRIS mutagenicity studies
# measurement.context: Test System: E. COLI; Strain/Indicator: WP2 UVRA; Metabolic Activation: NONE; Method: PREINCUBATION
The source made the active and inactive calls. No rule for the calls is given here.
The reply should be one of these categories: active, inactive

Illustrative cases are given below, each with its answer.
# molecule, label.value
rows = [
    ("CC(=O)c1cc(NC(N)=O)ccc1OCC(O)CNC(C)(C)C (stereo not drawn)", "inactive"),
    ("CN[C@H]1[C@@H](O[C@@H]2C3CC#CC4O[C@@]4(C4COC(=O)O4)C#CC3=C[C@H]2OC(=O)c2c(O)ccc3c(C)cc(OC)cc23)O[C@H](C)[C@H](O)[C@@H]1O (stereo partly drawn)", "active"),
    ("CNC(=C[N+](=O)[O-])NCCSCc1ccc(CN(C)C)o1", "inactive"),
    ("O=C(CBr)c1ccccc1", "inactive"),
    ("O=P(O)(O)OP(=O)(O)OP(=O)(O)O", "inactive"),
    ("CCN1CCN(C(=O)N[C@@H](C(=O)N[C@@H]2C(=O)N3[C@@H]2SC(C)(C)[C@@H]3C(=O)O)c2ccccc2)C(=O)C1=O", "inactive"),
]

Outcome? CNC(=O)c1cccc(NCC(=O)NCCc2ccc(OC)c(OC)c2)c1 inactive

Outcome? CO inactive

Values from PubChem BioAssay AID1259407
